- Tested on: HL-60(TB) leukemia
- method: NCI-60 one-dose screen, 48 h
- study conditions: 10 µM unless noted
Compounds without any hit were thinned out: in the full panel of roughly 83,000, 20% have a hit. Activity calls are given as the source filed them. How the source made its calls: active means growth percent below 10; inactive means the rest.
Please reply with one of these outcomes: T (active), F (inactive)

Worked examples follow.
>>> class_assignment("COC(=O)C(C)Oc1ccc(OC#N)cc1 (stereo unspecified)")
"F"
>>> class_assignment("Cc1ccc(N(CSc2ccc(Cl)cc2)CSc2ccc(Cl)cc2)cc1")
"T"
>>> class_assignment("CN1C(=O)N(C)C2C1NN=c1s/c(=C\\c3ccc(Br)cc3)c(=O)n12 (stereo unspecified)")
"T"
>>> class_assignment("Cn1c(=O)n(C)c2cc(CNCCNc3ccnc4cc(Cl)ccc34)ccc21")
"F"

[in] Hi, sorry to bother you, what did the test record for "CCOC(=O)c1sc2nc(-c3cccc(OC)c3)nc(N3CCOCC3)c2c1C" ?
[out] F

[in] Hi, sorry to bother you, what did the test record for "COc1cc(C(=O)/C=C/c2c(-c3ccc(F)cc3)nc3sc(C)cn23)cc(OC)c1OC" ?
[out] T

[in] Hi, sorry to bother you, what did the test record for CCn1cnc2c1c(=O)[nH]c(=O)n2CC1CCC(CNS(=O)(=O)c2ccc(OC3CCOCC3)c(F)c2)CC1 (stereo unspecified) ?
[out] F

[in] Hi, sorry to bother you, what did the test record for "CC(=O)C1C(=O)N(C)C(=O)N(C)C1=O" ?
[out] F

[in] Hi, sorry to bother you, what did the test record for "COc1cc(/C(C)=C(\c2ccc(Cl)cc2)c2ccc(OCCN(C)C)cc2)ccc1F" ?
[out] F

[in] Hi, sorry to bother you, what did the test record for CN(C)c1ccc2c(c1)OC(N)=C(C#N)C2c1ccc2c(c1)CCO2 (stereo unspecified) ?
[out] T

[in] Hi, sorry to bother you, what did the test record for "NS(=O)(=O)Oc1ccc(NC(=O)C2CCCCCC2)cc1" ?
[out] F

[in] Hi, sorry to bother you, what did the test record for "COc1ccc2nc(Cl)c(Cn3nnc(Cc4ccccc4)n3)cc2c1" ?
[out] F

[in] Hi, sorry to bother you, what did the test record for "O=C(Nc1nc2c(C(F)(F)F)cccc2s1)c1cc(Cl)ccc1O" ?
[out] T

Data provenance is PubChem BioAssay (NCI).
